# Test target: Hs_GSK3β (Homo sapiens)
# Sequence (P49841 whole entry): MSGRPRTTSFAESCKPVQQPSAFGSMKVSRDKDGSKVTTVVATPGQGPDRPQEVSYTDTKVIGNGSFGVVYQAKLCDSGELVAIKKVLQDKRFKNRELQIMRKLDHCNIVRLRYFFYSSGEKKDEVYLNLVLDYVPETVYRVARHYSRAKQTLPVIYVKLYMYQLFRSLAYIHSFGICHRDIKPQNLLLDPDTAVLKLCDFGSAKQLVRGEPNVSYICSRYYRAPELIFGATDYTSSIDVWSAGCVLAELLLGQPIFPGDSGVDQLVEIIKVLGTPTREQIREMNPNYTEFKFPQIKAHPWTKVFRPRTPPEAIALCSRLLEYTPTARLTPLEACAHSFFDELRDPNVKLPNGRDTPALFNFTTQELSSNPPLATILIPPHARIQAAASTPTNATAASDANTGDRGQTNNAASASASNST
# Protocol text: primary screening, short panel of mammalian kinases
# Format: biochemical
# Stated conditions: compound 1 μM; ATP 10 µM; means, n = 2; read-out: Residual kinase activity Hs_GSK3β
Observation type: remaining activity at 1 µM (%)
Give bare numbers, in %.

Memo: Cc1ccc(-n2cc(COc3cccc4cnc(Nc5cccc(-c6cccc(C(=O)O)c6)c5)nc34)nn2)c([N+](=O)[O-])c1 [Compound 13a] , reported remaining activity at 1 µM: 95

The compound listed as Cc1ccc(-n2cc(COc3cccc4cnc(Nc5cc(Cl)cc(-c6ccc(C(=O)O)cc6)c5)nc34)nn2)c([N+](=O)[O-])c1 [Compound 10b] has a reported remaining activity at 1 µM of 92

// each listed compound needs a value for remaining activity at 1 µM
1. Cc1ccc(-n2cc(COc3cccc4cnc(Nc5cccc(-c6ccc(C(=O)O)cc6)c5)nc34)nn2)c([N+](=O)[O-])c1 [Compound 10a]
2. COC(=O)c1ccc(-c2cc(Cl)cc(Nc3ncc4cccc(OCc5cn(-c6ccc(C)cc6[N+](=O)[O-])nn5)c4n3)c2)cc1
3. COC(=O)c1ccc(-c2cccc(Nc3ncc4cccc(OCc5cn(-c6ccc(C)cc6[N+](=O)[O-])nn5)c4n3)c2)cc1

Reply text:
1. 82
2. 90
3. 70

Form: compound = COC(=O)c1cccc(-c2cc(Cl)cc(Nc3ncc4cccc(OCc5cn(-c6ccc(C)cc6[N+](=O)[O-])nn5)c4n3)c2)c1 [Compound 12b] ; remaining activity at 1 µM = 97

Origin of values: paper PMC12557437
